This section presents compounds with their documented Pre-emergence action against TRZAS in % values.
Test system: Triticum aestivum (TRZAS)
Format: in vivo
Conditions: pre-emergence, 320 g/ha, crop plant compatibility, in comparison to untreated controls
Excerpt: Seeds of monocotyledonous and dicotyledonous weed plants and crop plants are placed in plastic or organic planting pots and covered with soil. […] After about 3 weeks, the effect of the preparations is scored visually in comparison with untreated controls as percentages. […]

Sample records with Pre-emergence action against TRZAS in %:
>  <Compound>
COC(=O)C1CCCN(C(=O)COc2nn(-c3ccccn3)c(-c3ccc(F)nc3)c2Br)C1 (centres unmarked) [Example I-108]

>  <Test target>
Triticum aestivum (TRZAS)

>  <Pre-emergence action against TRZAS in %>
10%

$$$$
>  <Compound>
CCOC(=O)COc1nn(-c2cccc(C)n2)c(-c2ccc(F)nc2)c1Br [Example I-312]

>  <Test target>
Triticum aestivum (TRZAS)

>  <Pre-emergence action against TRZAS in %>
20%

$$$$

Lookup: Pre-emergence action against TRZAS in % / Triticum aestivum (TRZAS) / CCOC(=O)CCNC(=O)CSc1nn(-c2ccccn2)c(-c2cncc(F)c2)c1Br [Example I-82] 20%

Follow-up item: O=C(COc1nn(-c2ccnc(Cl)c2)c(-c2ccc(F)nc2)c1Br)NS(=O)(=O)CC(F)(F)F [III-20] 0%

Follow-up item: CCOC(=O)COc1nn(-c2ccncc2)c(-c2ccc(F)nc2)c1Br [III-08] 0%

Follow-up item: COC(=O)CNC(=O)COc1nn(-c2cccc(C)n2)c(-c2ccc(F)nc2)c1Br [Example I-357] 10%

Follow-up item: COC(=O)COc1nn(-c2ncccc2F)c(-c2cncc(F)c2)c1Br [Example I-49] 0%

Follow-up item: C[C@@H](Oc1nn(-c2ncccc2F)c(-c2ccc(F)nc2)c1Br)C(=O)O [Example I-50] 10%

====

This section presents molecules with their documented Pre-emergence action against POLCO in % values.
tested on: Polygonum convolvulus (POLCO); assay: Pre-emergence herbicidal action against POLCO; assay type: in vivo; conditions: dosage 80 g/ha
Hi! Could you send only the number? It should be in %, unit omitted.

Sample records with Pre-emergence action against POLCO in %:
>  <Structure as smiles>
CCOC(=O)[C@@H](C)Oc1nn(-c2ncccc2Cl)c(-c2ccc(F)nc2)c1Br

>  <Test target>
Polygonum convolvulus (POLCO)

>  <Readout number>
90

$$$$
>  <Structure as smiles>
C[C@@H](Oc1nn(-c2ccccn2)c(-c2cncc(F)c2)c1Br)C(=O)O

>  <Test target>
Polygonum convolvulus (POLCO)

>  <Readout number>
90

$$$$
>  <Structure as smiles>
CCOC(=O)COc1nn(-c2ncccc2F)c(-c2ccc(F)nc2)c1Br

>  <Test target>
Polygonum convolvulus (POLCO)

>  <Readout number>
80

$$$$
>  <Structure as smiles>
CCOC(=O)COc1nn(-c2ncccc2C)c(-c2ccc(F)nc2)c1Cl

>  <Test target>
Polygonum convolvulus (POLCO)

>  <Readout number>
100

$$$$
>  <Structure as smiles>
COC(=O)CCOC(=O)[C@@H](C)Oc1nn(-c2ccccn2)c(-c2cncc(F)c2)c1Cl

>  <Test target>
Polygonum convolvulus (POLCO)

>  <Readout number>
90

$$$$

Bench note: what Pre-emergence action against POLCO in % did `CCOC(=O)COc1nn(-c2cccc(C)n2)c(-c2ccc(F)nc2)c1Cl` show? 80

Follow-up item: `COCCOC(=O)COc1nn(-c2ncccc2C)c(-c2cncc(F)c2)c1Br` 90

Follow-up item: `C[C@@H](Oc1nn(-c2ncccc2F)c(-c2ccc(F)nc2)c1Br)C(=O)O` 100

Follow-up item: `O=C(O)COc1nn(-c2ncccc2F)c(-c2ccc(F)nc2)c1Br` 80

The reported numbers originate from patent US20240041042A1.
